Data origin, for the record: patent US11174232B2

Target: CDK7/CycH/MNAT1 (Homo sapiens (Human), UniProt P50613)
Sequence (P50613 whole entry): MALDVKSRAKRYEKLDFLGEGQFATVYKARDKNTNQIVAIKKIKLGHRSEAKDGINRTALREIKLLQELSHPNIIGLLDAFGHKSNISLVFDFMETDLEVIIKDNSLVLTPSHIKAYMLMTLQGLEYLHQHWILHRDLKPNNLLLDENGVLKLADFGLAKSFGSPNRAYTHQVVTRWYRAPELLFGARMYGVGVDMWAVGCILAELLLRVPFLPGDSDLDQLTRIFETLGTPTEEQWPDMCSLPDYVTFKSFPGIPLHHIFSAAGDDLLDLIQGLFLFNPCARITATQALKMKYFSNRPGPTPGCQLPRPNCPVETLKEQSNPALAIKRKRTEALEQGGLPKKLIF
Sequence (P51946 whole entry partner): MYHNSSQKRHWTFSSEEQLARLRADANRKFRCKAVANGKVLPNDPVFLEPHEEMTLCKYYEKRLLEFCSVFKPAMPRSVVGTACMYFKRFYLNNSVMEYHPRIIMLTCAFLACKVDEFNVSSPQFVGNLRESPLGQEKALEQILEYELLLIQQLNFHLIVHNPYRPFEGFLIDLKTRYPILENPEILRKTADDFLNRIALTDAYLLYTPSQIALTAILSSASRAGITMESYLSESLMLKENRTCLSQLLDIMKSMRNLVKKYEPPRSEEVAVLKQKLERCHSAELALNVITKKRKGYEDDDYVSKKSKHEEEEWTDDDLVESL
Sequence (P51948 whole entry partner): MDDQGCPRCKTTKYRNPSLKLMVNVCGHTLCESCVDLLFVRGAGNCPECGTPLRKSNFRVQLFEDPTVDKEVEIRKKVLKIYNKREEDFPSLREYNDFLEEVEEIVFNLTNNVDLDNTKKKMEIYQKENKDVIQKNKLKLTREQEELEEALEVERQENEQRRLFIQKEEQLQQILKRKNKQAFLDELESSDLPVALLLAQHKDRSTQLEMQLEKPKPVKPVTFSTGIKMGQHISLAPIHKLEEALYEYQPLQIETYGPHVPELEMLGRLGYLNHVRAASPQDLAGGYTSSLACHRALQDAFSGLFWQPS
Assay: Biochemical Assay for CDK7 (TR-FRET kinase assay)
Conditions: 10 μM compound; 60 min pre-incubation with kinase; 1 mM ATP
readout-type: inhibition at 10 µM (%)
Numbers only here, please. The scale is %.

The cases that follow already have their inhibition at 10 µM on record.
CC(C)C(C(=O)Nc1cc(C2CC2)[nH]n1)c1cccc(-c2ccc(NC(=O)/C=C/CN(C)C)nc2)c1 (stereo not shown)	96
C=CC(=O)Nc1c(C)cc(-c2cccc(C(C)C(=O)Nc3cc(C4CC4)[nH]n3)c2)cc1C (stereo not shown)	79
CC(C(=O)Nc1cc(C2CC2)[nH]n1)c1cccc(-c2cccc(NC(=O)/C=C/CN3CCOCC3)c2)c1 (stereo not shown)	92

Inquiry: Notebook: pull reported inhibition at 10 µM for CDK7/CycH/MNAT1 (Homo sapiens (Human), UniProt P50613), entry COC/C=C/C(=O)Nc1ccc(-c2cccc(C(C)C(=O)Nc3cc(C4CC4)[nH]n3)c2)cn1 (stereo not shown)
Reply text: 90

Inquiry: Notebook: pull reported inhibition at 10 µM for CDK7/CycH/MNAT1 (Homo sapiens (Human), UniProt P50613), entry CC(C(=O)Nc1cc(C2CCC2)[nH]n1)c1cccc(-c2ccc(NC(=O)/C=C/CN(C)C)cc2)c1 (stereo not shown)
Reply text: 93

Inquiry: Notebook: pull reported inhibition at 10 µM for CDK7/CycH/MNAT1 (Homo sapiens (Human), UniProt P50613), entry CC(C(=O)Nc1cc(C2CC2)[nH]n1)c1cccc(-c2cncc(NC(=O)/C=C/CN3CCCC3)n2)c1 (stereo not shown)
Reply text: 86

Inquiry: Notebook: pull reported inhibition at 10 µM for CDK7/CycH/MNAT1 (Homo sapiens (Human), UniProt P50613), entry CC(C(=O)Nc1cc(C2CC2)[nH]n1)c1ccc(F)c(-c2ccc(NC(=O)/C=C/CN(C)C)cc2)c1 (stereo not shown)
Reply text: 95
